tested.system: T1, recombinant human CD123-Fc (human, UniProt P26951 19-305)
T1 construct: not shown: Fc part of CD123-Fc
T1 sequence: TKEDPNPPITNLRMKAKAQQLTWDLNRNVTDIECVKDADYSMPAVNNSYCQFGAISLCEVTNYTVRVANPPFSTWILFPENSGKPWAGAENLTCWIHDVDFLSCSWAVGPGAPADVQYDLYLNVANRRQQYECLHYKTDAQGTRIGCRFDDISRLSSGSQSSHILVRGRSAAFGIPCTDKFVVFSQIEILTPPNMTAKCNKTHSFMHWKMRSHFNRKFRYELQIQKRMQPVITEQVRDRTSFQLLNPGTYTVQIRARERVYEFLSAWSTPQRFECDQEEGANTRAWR
experiment.notes: phage ELISA, captured CD123-Fc
Classify as follows. Reported ELISA_avg greater than or equal to 5 ratio A450 target/IgG1-Fc: t. Reported ELISA_avg below: f.

Identify whether the reported ELISA_avg of the following binder is 5 ratio A450 target/IgG1-Fc or greater: SEQ ID NO: 398 (designed binder, D domain, on phage) MGSWSEFEHRLEAIESRLFALGGSEAELAAFEKEIAAFESELQAYKGKGNPEVEDLRSEAAWIREQLQAYRHN
t

Identify whether the reported ELISA_avg of the following binder is 5 ratio A450 target/IgG1-Fc or greater: SEQ ID NO: 495 (designed binder, D domain, on phage) MGSWYDFKEDLADIKWMLEALGGSEAELAEFENVIAYFENDLQEYKGKGNPEVEALRKEAAAIRDELQAYRHN
t

Identify whether the reported ELISA_avg of the following binder is 5 ratio A450 target/IgG1-Fc or greater: SEQ ID NO: 441 (designed binder, D domain, on phage) MGSWIVFKDDLADIKRWLEALGGSEAELAMFEDEIADFEWQLQDYKGKGNPEVEALRKEAAAIRDELQAYRHN
f

Identify whether the reported ELISA_avg of the following binder is 5 ratio A450 target/IgG1-Fc or greater: SEQ ID NO: 485 (designed binder, D domain, on phage) MGSWQYFKDDLAEIKMVLEALGGSEAELAWFEADIAMFEDDLQIYKGKGNPEVEALRKEAAAIRDELQAYRHN
f

meta.source: patent US20230125550A1
